// provenance: ChEMBL document CHEMBL1201862

Test system: NCI-H460
Assay: NCI tumour cell line growth inhibition, 48 h
Active and inactive are the calls of the source. No stated cut-off is given here; in the data, active = GI50 up to about 1.1 µM and inactive = higher.
Classes used: active, inactive

>  <compound>
COc1cc(Nc2cc(Cl)cc(Cl)c2)nc(N)n1

>  <classAssignment>
inactive

$$$$
>  <compound>
COc1c(C2(c3ccc(F)cc3)SCCCS2)c(=O)c1=O

>  <classAssignment>
inactive

$$$$
>  <compound>
Cc1ccc(C)c(C2NC(=O)c3ccccc3N2)c1 (stereo not drawn)

>  <classAssignment>
active

$$$$
>  <compound>
CC1CN=C(Nc2ccccc2)S1 (stereo not drawn)

>  <classAssignment>
inactive

$$$$
>  <compound>
Cc1nc(O)nc(N/N=C/c2ccc(Cl)cc2)c1C(=O)NC(C)(CO)CO

>  <classAssignment>
inactive

$$$$
>  <compound>
CO/C(=N\N=C\c1cccc(Cl)c1)c1ccncc1

>  <classAssignment>
inactive

$$$$
>  <compound>
C#CC[C@]12CC(=O)CC[C@H]1CC(=O)C2

>  <classAssignment>
inactive

$$$$
>  <compound>
C/C(=N\c1cc(Cl)cc(Cl)c1)c1ccncc1

>  <classAssignment>
inactive

$$$$
>  <compound>
COc1ccc2c(c1)c1c(n2CCN2CCOCC2)-c2ccccc2CC1

>  <classAssignment>
inactive

$$$$
>  <compound>
CCCCCCCCCCOC1C(C(C)OCCCN(C)C)OC2OC3(CCCCC3)OC21 (stereo not drawn)

>  <classAssignment>
inactive

$$$$
>  <compound>
COc1cc(OC)cc(-c2cc(=O)c3c(OC)c(OC)c(OC)c(OC)c3o2)c1

>  <classAssignment>
inactive

$$$$
>  <compound>
Nn1c(Sc2nc3ccccc3c(=O)n2N)nc2ccccc2c1=O

>  <classAssignment>
inactive

$$$$
>  <compound>
COc1ccc(/C=C(\C#N)c2nc(N)nc(N3N=C(C)CC3(C)C)n2)c(O)c1

>  <classAssignment>
inactive

$$$$
>  <compound>
C=CCOC(=O)C1=C(CCC[C@@H](C)O[Si](C)(C)C(C)(C)C)N=C(N)N2[C@H](CCO)CC[C@@H]12

>  <classAssignment>
inactive

$$$$
>  <compound>
CCC(COC(=O)CC[C@@H](NC(=O)C(C)NC(=O)C(C)OC1C(O)C(CO)OC(OCc2ccccc2)C1NC(C)=O)C(N)=O)NC1c2ccccc2Nc2cccc([N+](=O)[O-])c21 (stereo partly drawn)

>  <classAssignment>
inactive

$$$$
>  <compound>
Cl[Si]1(Cl)Oc2ccccc2O[Si](Cl)(Cl)Oc2ccccc2O1

>  <classAssignment>
inactive

$$$$
>  <compound>
Cc1ccc(C[N+](C)(C)N)cc1C

>  <classAssignment>
inactive

$$$$
>  <compound>
CCOC(=O)C(=[N+]=[N-])C(=O)Nc1nn2nnnc2c2ccccc12

>  <classAssignment>
inactive

$$$$
>  <compound>
Fc1ccc(Nc2nc(Cl)c3nc[nH]c3n2)cc1Cl

>  <classAssignment>
inactive

$$$$
>  <compound>
CCN(CCCOc1ccccc1)CCN(CC)CCCOc1ccccc1

>  <classAssignment>
inactive

$$$$
>  <compound>
C[N+]1(C)C2Cc3ccccc3C1Cc1ccccc12

>  <classAssignment>
inactive

$$$$
>  <compound>
Cc1ccc(CCCCCOc2ccc(C3=NCCO3)cc2)s1

>  <classAssignment>
inactive

$$$$
>  <compound>
COC(=O)c1ccc(C)cc1/C=C1\Cc2ccc(C)cc2C1=O

>  <classAssignment>
inactive

$$$$

----------
Tested on: SK-MEL-28
Experiment: NCI tumour cell line growth inhibition, 48 h
Activity calls are given as the source filed them. Cut-off read from the data, not from the text of the source: active = GI50 up to about 1.1 µM and inactive = higher.
Consider the following compounds and their measured GI50 readings.

>  <smilesRecord>
O=C(CCCN1CCC2(CC1)OC(=O)N(c1ccccc1)C2=O)c1ccccc1

>  <GI50>
> 100 µM (inactive)

$$$$
>  <smilesRecord>
CCC(=O)/C=C/c1ccccc1

>  <GI50>
54 µM (inactive)

$$$$
>  <smilesRecord>
COc1ccc(Nc2nc3ccc(C(F)(F)F)cc3nc2C(=O)O)cc1OC

>  <GI50>
41.6 µM (inactive)

$$$$
>  <smilesRecord>
Cc1ccc(CCCCCOc2ccc(C3=NCCO3)cc2)s1

>  <GI50>
> 100 µM (inactive)

$$$$
>  <smilesRecord>
C=CCOC(=O)C1=C(CCC[C@@H](C)O[Si](C)(C)C(C)(C)C)N=C(N)N2[C@H](CCO)CC[C@@H]12

>  <GI50>
17.5 µM (inactive)

$$$$
>  <smilesRecord>
Cc1ccc(/N=N/c2ccc(O)c(CN(C)C)c2)cc1C

>  <GI50>
5.47 µM (inactive)

$$$$

----------
Tested on: HOP-92
Assay: NCI tumour cell line growth inhibition, 48 h
Active and inactive are the calls of the source. Cut-off read from the data, not from the text of the source: active = GI50 up to about 1.1 µM and inactive = higher.

>  <molecule>
Cc1nc(Nc2ccccc2)sc1C(=O)NNC(N)=O

>  <GI50>
64.4 µM (inactive)

$$$$
>  <molecule>
Ic1cc2c(cc1C1SCCCS1)OCO2

>  <GI50>
> 100 µM (inactive)

$$$$
>  <molecule>
CC1OC(OC2C(O[C@@H]3C[C@@H]4CC[C@@H]5[C@H](CC[C@]6(C)[C@@H]7[C@H](C[C@@H]56)O[C@]5(CC[C@@H](C)CO5)[C@H]7C)[C@@]4(C)C[C@H]3O)OC(CO)C(OC3OC(CO)C(O)C(O)C3O)C2O)C(O)C(O)C1O (some centres not stated)

>  <GI50>
2.51 µM (inactive)

$$$$
>  <molecule>
C[NH+]1[C@@H](Cc2ccccc2)C(=O)O[B-]1(F)c1ccccc1 (some centres not stated)

>  <GI50>
> 100 µM (inactive)

$$$$
>  <molecule>
CC1CN=C(N(C)C(=O)Nc2ccc(Cl)cc2)S1 (configuration not stated)

>  <GI50>
29.9 µM (inactive)

$$$$
>  <molecule>
Cc1nc(=O)n2c(c1C(=O)Nc1ccc(Cl)cc1)NCCC2

>  <GI50>
> 100 µM (inactive)

$$$$
>  <molecule>
COC(=O)c1ccc(C)cc1/C=C1\Cc2ccc(C)cc2C1=O

>  <GI50>
15.5 µM (inactive)

$$$$

----------
Consider the following molecules and their measured GI50 readings.
Test system: M14
Test: NCI tumour cell line growth inhibition, 48 h
Activity calls are given as the source filed them. No stated cut-off is given here; in the data, active = GI50 up to about 1.1 µM and inactive = higher.
endpointName: GI50

>  <molecule>
CCCCCCCC/C=C1\CCC(CN2CCOCC2)C1=O (configuration not stated)

>  <subjectOfTest>
M14

>  <experimentalResult>
5.37 µM (inactive)

$$$$
>  <molecule>
COc1ccc(NC(=O)C2C(=O)N(c3ccc(OC)cc3)C(=O)/C2=N\N)cc1 (configuration not stated)

>  <subjectOfTest>
M14

>  <experimentalResult>
> 100 µM (inactive)

$$$$
>  <molecule>
CCN(CCO)CC1COc2ccccc2O1 (configuration not stated)

>  <subjectOfTest>
M14

>  <experimentalResult>
> 100 µM (inactive)

$$$$
>  <molecule>
c1ccc2c(c1)-c1ccccc1C2N1CC2CCC(CC2)C1

>  <subjectOfTest>
M14

>  <experimentalResult>
26.7 µM (inactive)

$$$$
>  <molecule>
CCOC(=O)/C(=C/c1ccc(OC)c(OC)c1)C(=O)c1ccccc1

>  <subjectOfTest>
M14

>  <experimentalResult>
13.9 µM (inactive)

$$$$
>  <molecule>
O=C1NN=C(c2c[nH]c3ccccc23)CC1NCc1ccccc1 (configuration not stated)

>  <subjectOfTest>
M14

>  <experimentalResult>
> 100 µM (inactive)

$$$$
>  <molecule>
O=c1[nH]cc(COCC(F)(F)C(F)(F)C(F)(F)C(F)F)c(=O)[nH]1

>  <subjectOfTest>
M14

>  <experimentalResult>
> 100 µM (inactive)

$$$$
>  <molecule>
O=C1NC2(CCNCC2)Oc2ccccc21

>  <subjectOfTest>
M14

>  <experimentalResult>
> 100 µM (inactive)

$$$$
>  <molecule>
CCOC(=O)/C=C/CC(C)(C)COC(C)=O

>  <subjectOfTest>
M14

>  <experimentalResult>
6.75 µM (inactive)

$$$$
>  <molecule>
CCCCCCCCCCOC1C(C(C)OCCCN(C)C)OC2OC3(CCCCC3)OC21 (configuration not stated)

>  <subjectOfTest>
M14

>  <experimentalResult>
3.33 µM (inactive)

$$$$
>  <molecule>
CC(C)(C)c1ccc(O)c(CN(Cc2cc(C(C)(C)C)ccc2O)c2ccccc2)c1

>  <subjectOfTest>
M14

>  <experimentalResult>
14.4 µM (inactive)

$$$$
>  <molecule>
CCCC(C)c1c(Cl)nc(Cl)nc1Cl (configuration not stated)

>  <subjectOfTest>
M14

>  <experimentalResult>
1.71 µM (inactive)

$$$$

----------
Test system: UACC-257
Experiment: NCI tumour cell line growth inhibition, 48 h
Calls of active or inactive are those of the source. No stated cut-off is given here; in the data, active = GI50 up to about 1.1 µM and inactive = higher.

>  <compound>
NC12c3c4cccc3Oc3cccc(c31)Oc1cccc(c12)O4

>  <subjectOfTest>
UACC-257

>  <GI50>
> 50 µM (inactive)

$$$$
>  <compound>
CCOC(=O)/C(=C/c1ccc(OC)c(OC)c1)C(=O)c1ccccc1

>  <subjectOfTest>
UACC-257

>  <GI50>
15.1 µM (inactive)

$$$$
>  <compound>
CC1SC(=O)SC1C (configuration not stated)

>  <subjectOfTest>
UACC-257

>  <GI50>
> 100 µM (inactive)

$$$$
>  <compound>
O=C(CNc1cccc(Cl)c1)Nn1c(-c2ccccc2)nc2ccccc2c1=O

>  <subjectOfTest>
UACC-257

>  <GI50>
14 µM (inactive)

$$$$
>  <compound>
O=C1CSC(Cc2nc3ccccc3[nH]2)=N1

>  <subjectOfTest>
UACC-257

>  <GI50>
19.7 µM (inactive)

$$$$
>  <compound>
O=C1CCCCC(=O)Nc2ccccc2N1

>  <subjectOfTest>
UACC-257

>  <GI50>
> 100 µM (inactive)

$$$$
>  <compound>
Cc1cc(Cl)ccc1NC(=O)/C(CC(=O)CC(c1ccccc1)c1c(O)c2ccccc2oc1=O)=N\O (configuration not stated)

>  <subjectOfTest>
UACC-257

>  <GI50>
> 100 µM (inactive)

$$$$
>  <compound>
CN(C)c1ccc(/C=C/C(=O)O)cc1

>  <subjectOfTest>
UACC-257

>  <GI50>
> 100 µM (inactive)

$$$$
>  <compound>
CCOC(=O)COc1cc(-c2ccccc2F)nc2cc3c(cc12)OCO3

>  <subjectOfTest>
UACC-257

>  <GI50>
> 100 µM (inactive)

$$$$
>  <compound>
CC1=CC(=O)c2ccc(C)cc2C1=O

>  <subjectOfTest>
UACC-257

>  <GI50>
12.9 µM (inactive)

$$$$
>  <compound>
COc1ccc(N[S+]([O-])C2CCCCC2)cc1 (configuration not stated)

>  <subjectOfTest>
UACC-257

>  <GI50>
> 100 µM (inactive)

$$$$
>  <compound>
Cc1ccc(C)c(C2NC(=O)c3ccccc3N2)c1 (configuration not stated)

>  <subjectOfTest>
UACC-257

>  <GI50>
12 µM (inactive)

$$$$
